Where do the numbers come from? From ChEMBL document CHEMBL4421722.

Species on record: Rattus norvegicus
Experiment: Inhibition of rat recombinant geranylgeranyltransferase type I expressed in Escherichia coli assessed as residual enzyme activity for geranylgeranylation of RhoA at 50 uM incubated for 30 mins in presence of [3H]GGPP by scintillation counting assay relative to control
Please enter t where Activity is greater than or equal to 9%, and f where it is lower.

1. Cc1ccc(S(=O)(=O)N2[C@@H](c3cccc(Br)c3)C(C(=O)O)=CC[C@H]2c2cccc(Cl)c2)cc1    f
2. CCC[C@@H]1[C@@H](Sc2ccc(OC)cc2)[C@@H](C(=O)O)[C@H](c2cccc(F)c2)N1S(=O)(=O)c1ccc(C)cc1    f
3. Cc1ccccc1S(=O)(=O)N1[C@@H](c2cccc(F)c2)C(C(=O)O)=CC[C@H]1c1ccc(Cl)cc1    f
4. CCCCCS[C@@H]1C[C@@H](c2cccc(Br)c2)N(S(=O)(=O)c2ccc(C)cc2)C[C@H]1C(=O)O    t
5. Cc1ccc(S(=O)(=O)N2[C@@H](c3ccc(Br)cc3)C(C(=O)O)=CC[C@H]2c2ccc(Cl)c(Cl)c2)cc1    t
6. Cc1ccc(S(=O)(=O)N2C[C@@H](C(=O)O)[C@H](Sc3ccc(Cl)cc3)C[C@H]2c2cccc(Cl)c2)cc1    f
7. CCCCCC[C@@H]1[C@@H](SC2CCCC2)[C@@H](C(=O)O)[C@H](c2ccc(C#N)cc2)N1S(=O)(=O)c1ccc(C)cc1    f
8. Cc1ccc([C@@H]2C[C@@H](Sc3ccc(Cl)cc3)[C@H](C(=O)O)CN2S(=O)(=O)c2ccccc2)cc1    t
